- System: SF-539
- Assay Details: NCI tumour cell line growth inhibition, 48 h
The source made the active and inactive calls. Cut-off read from the data, not from the text of the source: active = GI50 up to about 1.1 µM and inactive = higher.
Kindly supply the reported GI50 values for the records listed here.

Record summary for COC(=O)NN1C(C)=C(C(=O)OC)C2(C#N)C(C(=O)OC)=C(C)N(NC(=O)OC)C12N (stereo not drawn) : reported GI50 = > 100 µM (inactive)

Entry under test: CCC(COC(=O)CC[C@@H](NC(=O)C(C)NC(=O)C(C)OC1C(O)C(CO)OC(OCc2ccccc2)C1NC(C)=O)C(N)=O)NC1c2ccccc2Nc2cccc([N+](=O)[O-])c21 (stereo partly drawn) . Its GI50 was > 100 µM (inactive)

Short answer for CC1OC(OC2C(O[C@@H]3C[C@@H]4CC[C@@H]5[C@H](CC[C@]6(C)[C@@H]7[C@H](C[C@@H]56)O[C@]5(CC[C@@H](C)CO5)[C@H]7C)[C@@]4(C)C[C@H]3O)OC(CO)C(OC3OC(CO)C(O)C(O)C3O)C2O)C(O)C(O)C1O (stereo partly drawn) : GI50 was 1.77 µM (inactive)

Lab note: measured GI50 of O=c1cc(CNC2CCCC2)[nH]c(=O)[nH]1 was > 100 µM (inactive)

Reported GI50 ( O=C1NC(=O)C2=C1CCC2O (stereo not drawn) ) = > 100 µM (inactive)

According to the records, this compound Oc1cc(-c2cccc(Br)c2)nc2cc3c(cc12)OCO3 displays GI50 of 2.19 µM (inactive)

The compound identified as CCN(CCCOc1ccccc1)CCN(CC)CCCOc1ccccc1 registered its GI50 at 10.7 µM (inactive)

Entry under test: CC(C)C[S+]1C2=C(CC(C)(C)CC2=O)[N-]c2ccccc21 (stereo not drawn) . Its GI50 was > 100 µM (inactive)
